experiment.summary: Tmax in HIV-infected patient at 480 mg/m2, po administered every 12 hrs for 6 weeks co-administered with 120 mg/m2 of ritonavir and saquinavir
Assay type: ADME, organism-based
stated.conditions: human, in vivo
parameter: Tmax (h)
One number for each entry, in h.

Notebook: `CC(C)(C)NC(=O)[C@@H]1C[C@@H]2CCCC[C@@H]2CN1C[C@@H](O)[C@H](Cc1ccccc1)NC(=O)[C@H](CC(N)=O)NC(=O)c1ccc2ccccc2n1` , Tmax read as 3

----------
experiment.summary: Cmax in HIV-infected patient at 400 mg/m2, po administered every 12 hrs for 2 weeks co-administered with 120 mg/m2 of ritonavir
Format: ADME, organism-based
Parameters: route oral
stated.conditions: human, in vivo, in the assay text read “100 mg/m2 of ritonavir” for “120 mg/m2 of ritonavir”
parameter: Cmax (ng/mL)
Give bare numbers, in ng/mL.

Quick note, Cmax for `Cc1cccc(C)c1OCC(=O)N[C@@H](Cc1ccccc1)[C@@H](O)C[C@H](Cc1ccccc1)NC(=O)[C@H](C(C)C)N1CCCNC1=O` landed at 17200

----------
experiment.summary: AUC in HIV-infected patient at 480 mg/m2, po administered every 12 hrs for 6 weeks co-administered with 120 mg/m2 of ritonavir and saquinavir
Format: ADME, organism-based
stated.conditions: human, plasma
parameter: AUC (ng·h/mL)
One number for each entry, in ng·h/mL.

According to the records, this compound `CC(C)(C)NC(=O)[C@@H]1C[C@@H]2CCCC[C@@H]2CN1C[C@@H](O)[C@H](Cc1ccccc1)NC(=O)[C@H](CC(N)=O)NC(=O)c1ccc2ccccc2n1` displays AUC of 33700

----------
experiment.summary: Clearance in HIV-infected patient at 400 mg/m2, po administered every 12 hrs for 2 weeks co-administered with 120 mg/m2 of ritonavir
Format: ADME, organism-based
stated.conditions: human, in vivo, in the assay text read “100 mg/m2 of ritonavir” for “120 mg/m2 of ritonavir”
parameter: CL/F (mL/min)
Numbers only, in mL/min.

Record `Cc1cccc(C)c1OCC(=O)N[C@@H](Cc1ccccc1)[C@@H](O)C[C@H](Cc1ccccc1)NC(=O)[C@H](C(C)C)N1CCCNC1=O` , field CL/F: 43

----------
experiment.summary: Cmax in HIV-infected patient at 480 mg/m2, po administered every 12 hrs for 6 weeks co-administered with 120 mg/m2 of ritonavir and saquinavir
Format: ADME, organism-based
Parameters: route oral
stated.conditions: human, in vivo
parameter: Cmax
Be sure to follow the number with its unit.

Cmax measured on `CC(C)(C)NC(=O)[C@@H]1C[C@@H]2CCCC[C@@H]2CN1C[C@@H](O)[C@H](Cc1ccccc1)NC(=O)[C@H](CC(N)=O)NC(=O)c1ccc2ccccc2n1` = 3600 ng/mL

----------
experiment.summary: Plasma concentration in HIV-infected patient at 400 mg/m2, po administered every 12 hrs for 2 weeks co-administered with 120 mg/m2 of ritonavir measured 12 hrs after last dose
Assay type: ADME, organism-based
stated.conditions: human, in the assay text read “100 mg/m2 of ritonavir” for “120 mg/m2 of ritonavir”
parameter: concentration at 12 h (ng/mL)
Answers are plain numbers, in ng/mL.

molecule `Cc1cccc(C)c1OCC(=O)N[C@@H](Cc1ccccc1)[C@@H](O)C[C@H](Cc1ccccc1)NC(=O)[C@H](C(C)C)N1CCCNC1=O` , concentration at 12 h observed: 8800
